# Tested on: OVCAR-3
# ASSAY NAME: NCI tumour cell line growth inhibition, 48 h
Calls of active or inactive are those of the source. Cut-off read from the data, not from the text of the source: active = GI50 up to about 1.1 µM and inactive = higher.
Items are presented alongside their recorded GI50.

Before answering, review these 5 worked examples.
MOLECULE | RESULT
CC1(C)c2ccccc2N2O[C@@H]3C(=O)N(c4ccccc4)C(=O)[C@@H]3C21c1ccccc1 (stereo partly drawn) | > 100 µM (inactive)
COc1ccc(C2c3cc4c(cc3OC(O)(CO)C2C(=O)O)OCO4)cc1.COc1ccc(C2c3cc4c(cc3OC3(O)COC(=O)C23)OCO4)cc1 (stereo not drawn) | 22.4 µM (inactive)
Cc1cc(C)c(C2CC(O)C(CO)O2)cc1C (stereo not drawn) | > 100 µM (inactive)
Cc1c(C(=O)Nc2ccc(Cl)c(C(F)(F)F)c2)oc2cc(O)ccc2/c1=N\NC(N)=S | > 100 µM (inactive)
COc1cc(/C=C\c2ccc(Br)cc2)cc(OC)c1OC | 0.000341 µM (active)

Incoming: Identify the measured GI50 of COc1cc2c(cc1O)C(=O)O[C@@H]1CC=C3CCN(C)[C@H]3[C@H]21 for OVCAR-3.
Outgoing: > 25 µM (inactive)

Incoming: Identify the measured GI50 of CC(N/N=C(\S)N1CCCCCC1)c1cccnn1 (stereo not drawn) for OVCAR-3.
Outgoing: 0.192 µM (active)

Where these numbers come from: ChEMBL document CHEMBL1201862
